Please provide measured CC50 at 72 h for the entries that follow.
test-method-notes: Cytotoxicity against african green monkey Vero cells after 3 days by neutral red dye method
Type: cell-based
experimental-setup: chlorocebus sabaeus

The compound listed as "CC(=O)OC[C@H]1O[C@@H](n2ccc(O)c(-c3ccc(C4CCCCC4)cc3)c2=O)[C@H](OC(C)=O)[C@@H]1OC(C)=O" has a reported CC50 at 72 h of > 200 µM

The compound listed as "O=c1c(-c2ccc3c(c2)OCO3)c(O)ccn1[C@@H]1O[C@H](CO)[C@@H](O)[C@H]1O" has a reported CC50 at 72 h of > 400 µM

The compound listed as "COc1ccc(-c2c(O)ccn([C@@H]3O[C@H](CO)[C@@H](O)[C@H]3O)c2=O)cc1" has a reported CC50 at 72 h of > 400 µM

The compound listed as "CCOc1ccc(-c2c(O)ccn([C@@H]3O[C@H](CO)[C@@H](O)[C@H]3O)c2=O)cc1" has a reported CC50 at 72 h of > 200 µM

The compound listed as "COc1cc(-c2c(O)ccn([C@@H]3O[C@H](CO)[C@@H](O)[C@H]3O)c2=O)cc(OC)c1OC" has a reported CC50 at 72 h of > 200 µM

The compound listed as "CCOc1ccc(-c2c(O)c(-c3ccccc3)cn([C@@H]3O[C@H](COC(C)=O)[C@@H](OC(C)=O)[C@H]3OC(C)=O)c2=O)cc1" has a reported CC50 at 72 h of > 200 µM

The compound listed as "O=c1c(-c2ccc(C3CCCCC3)cc2)c(O)ccn1[C@@H]1O[C@H](CO)[C@@H](O)[C@H]1O" has a reported CC50 at 72 h of > 200 µM

The compound listed as "COc1c(C)cc(-c2c(O)ccn([C@@H]3O[C@H](COC(C)=O)[C@@H](OC(C)=O)[C@H]3OC(C)=O)c2=O)cc1C" has a reported CC50 at 72 h of > 200 µM
